Measured values drawn from a melting point compilation (Tetko et al.) for this set.

Parameter melting point: see the listing below.

Some solved entries appear below for comparison.
[[record]]
compound = "COc1cc(CC#N)ccc1SC(F)(F)F"
experimental_endpoint = "melting point"
readout_value = "59 to 61 °C"

[[record]]
compound = "O=C(O)c1ccc(-c2nnn[nH]2)cc1"
experimental_endpoint = "melting point"
readout_value = "282 to 284 °C"

[[record]]
compound = "O=C1CCC2(C(=O)O)Sc3ccccc3N12 (stereo not drawn)"
experimental_endpoint = "melting point"
readout_value = "225 to 227 °C"

[[record]]
compound = "CS(=O)(=O)c1cc(Br)ccc1[N+](=O)[O-]"
experimental_endpoint = "melting point"
readout_value = "152 to 154 °C"

[[record]]
compound = "Cn1c(=O)c(CBr)nc2ccccc21"
experimental_endpoint = "melting point"
readout_value = "179 to 181 °C"

[[record]]
compound = "Clc1ncnc2c1nnn2-c1ccccc1"
experimental_endpoint = "melting point"
readout_value = "115 to 117 °C"

[[record]]
compound = "O=C(CCl)NCC1CCCc2ccccc21 (stereo not drawn)"
experimental_endpoint = "melting point"
readout_value = "114 to 116 °C"

[[record]]
compound = "CCOC(=O)Cc1nnc(S)n1Cc1ccco1"
experimental_endpoint = "melting point"
readout_value = "< 17 °C"


Problem: Sample CC(O)C(=O)Nc1ccccc1 (stereo not drawn) — what was its melting point?
Result: 52 to 54 °C

Problem: What does the record list as melting point for NS(=O)(=O)c1ccc(OCCSCC(=O)O)cc1 ?
Result: 196 to 198 °C

Problem: Quick one: melting point of CC(=O)c1ccc(-n2cnnn2)cc1 ?
Result: 174 to 176 °C

Problem: What measured melting point goes with Nc1nc(-c2ccccc2OC(F)F)n[nH]1 ?
Result: 188 to 190 °C

Problem: Data request, read-out melting point, for CCc1cccc(CC)c1NC(=O)C(C)Cl (stereo not drawn)
Result: 166 to 168 °C
